Ki: recorded values
- targetOrTestSystem: TAAR1 (Mus musculus, UniProt Q923Y8)
- Construct: expressed in transfected cells; host or cells: HEK293 (ATCC # CRL-1573), stably transfected with pIRESneo2 expression plasmid; membranes prepared
- Sequence (Q923Y8 whole entry): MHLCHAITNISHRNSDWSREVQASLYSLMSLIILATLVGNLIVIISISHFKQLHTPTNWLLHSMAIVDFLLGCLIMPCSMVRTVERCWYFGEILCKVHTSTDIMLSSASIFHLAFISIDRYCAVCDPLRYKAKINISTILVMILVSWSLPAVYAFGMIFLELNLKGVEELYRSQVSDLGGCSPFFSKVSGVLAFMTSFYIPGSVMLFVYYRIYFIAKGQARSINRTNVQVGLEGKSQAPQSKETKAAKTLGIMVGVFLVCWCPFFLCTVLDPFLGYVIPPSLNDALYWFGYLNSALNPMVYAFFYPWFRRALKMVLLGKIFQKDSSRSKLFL
- protocolText: Radioligand binding assay on membranes of HEK293 cells stably expressing TAAR1
- testParameters: mouse TAAR1; radioligand [3H]-rac-2-(1,2,3,4-tetrahydro-1-naphthyl)-2-imidazoline at 60 nM; 4° C., 30 min
measurementName: Ki (µM)

INSERT INTO results (molecule, measurementname, observed) VALUES
  ('c1ccc(C2CC2)c(OCC2=NCCN2)c1 [Example K20]', 'Ki', 0.0325),
  ('FC(F)(F)c1cccc(OCC2=NCCN2)c1Cl [Example 20]', 'Ki', 0.0016),
  ('Clc1ccc(OCC2=NCCN2)cc1Cl [Example 27]', 'Ki', 0.0329),
  ('CN(CC1=NCCN1)c1cccc(Cl)c1 [Example 3]', 'Ki', 0.0084),
  ('c1ccc(CCCc2ccc(OCC3=NCCN3)cc2)cc1 [Example 15]', 'Ki', 0.0441),
  ('Clc1cccc(NCC2=NCCN2)c1 [Example K2]', 'Ki', 0.007),
  ('CC(C)Oc1ccc(C(=O)CCc2ccc(OC(C)C3=NCCN3)cc2)cc1 (centres unmarked) [Example 12]', 'Ki', 0.0158),
  ('c1cc2ccc(OCC3=NCCN3)cc2o1 [Example 17]', 'Ki', 0.0372),
  ('Cc1ccc(NNC2=NCCN2)cc1C [Example 35]', 'Ki', 0.044),
  ('Clc1cccc(SCC2=NCCN2)c1Cl [Example 31]', 'Ki', 0.0075),
  ('Clc1ccc(NCC2=NCCN2)cc1 [Example K1]', 'Ki', 0.023),
  ('COc1ccccc1N(C)CC1=NCCN1 [Example 9]', 'Ki', 0.0432),
  ('Clc1cc(NCC2=NCCN2)ccc1Br [Example 1]', 'Ki', 0.0022),
  ('COc1ccc(Cc2ccc(NCC3=NCCN3)cc2)cc1 [Example 8]', 'Ki', 0.0443),
  ('CN(CC1=NCCN1)c1ccc(Cl)c(Cl)c1 [Example 4]', 'Ki', 0.0059),
  ('CC(Oc1c(Cl)cccc1Cl)C1=NCCN1 (centres unmarked) [Example K21]', 'Ki', 0.0262),
  ('Cc1c(NCC2=NCCN2)ccc2occc12 [Example 7]', 'Ki', 0.0028),
  ('Clc1ccccc1OCC1=NCCN1 [Example K10]', 'Ki', 0.064),
  ('CC(C)Oc1ccc(OCc2ccc(OCC3=NCCN3)cc2)cc1 [Example 13]', 'Ki', 0.025),
  ('Cc1c(O)ccc(OCC2=NCCN2)c1C [Example 24]', 'Ki', 0.093),
  ('Fc1cc(NCC2=NCCN2)ccc1Cl [Example 2]', 'Ki', 0.0011),
  ('Clc1cccc(OCC2=NCCN2)c1Cl [Example K12]', 'Ki', 0.0063),
  ('Fc1cccc(OCC2=NCCN2)c1F [Example 21]', 'Ki', 0.0341),
  ('FC(F)(F)c1cccc(OCC2=NCCN2)c1 [Example K17]', 'Ki', 0.0913),
  ('Cc1c(Cl)cccc1NNC1=NCCN1 [Example K25]', 'Ki', 0.0057),
  ('c1ccc(Cc2cccc(OCC3=NCCN3)c2)cc1 [Example 14]', 'Ki', 0.0054);

Cited source: patent US7652055B2
